Assay: FRG1 promoter luciferase signal modulators, primary screen, FRG1 inhibition for FSHD, cell-based, C2C12 myotubes, firefly/Renilla luciferase, luminescence (AID 1084)
Settings: higher = more signal, called active from +8 up or from −8 down
Give measured z-score for each item. Keep answers brief.
Just the number, please, no unit after it.

Input line: What does the record list as z-score for C=C(C)C(=O)OC[C@H]1CN2[C@@H](CC[C@@H](C)[C@@H]2c2ccc(Br)cc2)C(=O)O1 ?
Output line: 0.402

Input line: Data request, read-out z-score, for C=CC[C@@H]1C=C[C@H](ON=C(C)CCN2CCCCc3nc(C)c(C)cc32)[C@@H](CO)O1
Output line: 0.389

Input line: Record request: z-score value, item CC(C)=CCCC(C)=CCON=C1C[C@@H](O)[C@@H](O)[C@@H]2[C@@H]3C(=O)N(Cc4ccc5c(c4)OCO5)C(=O)[C@@H]3CC[C@@H]12
Output line: 0.397

###

Biological target: Concanavalin-A (Canavalia ensiformis) (UniProt P02866)
Sequence (P02866 whole entry, looked up): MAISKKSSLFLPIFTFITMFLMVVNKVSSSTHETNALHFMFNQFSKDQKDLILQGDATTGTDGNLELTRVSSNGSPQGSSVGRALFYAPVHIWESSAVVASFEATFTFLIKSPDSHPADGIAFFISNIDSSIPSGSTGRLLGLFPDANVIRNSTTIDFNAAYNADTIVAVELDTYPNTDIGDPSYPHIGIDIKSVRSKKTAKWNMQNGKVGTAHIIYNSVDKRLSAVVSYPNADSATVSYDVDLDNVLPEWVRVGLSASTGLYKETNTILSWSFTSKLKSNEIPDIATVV
Test: ConA small-molecule binders, primary screen, artefact control for SMM control protein annotation, biochemical, small-molecule microarray, Alexa647 label, 635 nm (AID 1127);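 further: z combines 667 nm emission intensity with signal-to-noise across three replicate slides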
Conditions: ConA-A647 binding fluorescence, higher = more signal
Would you kindly list composite z-score for each of these molecules?
No unit in the answer, please; the number alone is enough.

Input line: Suppose we examine the molecule C[C@@H]1CC[C@H]2C(=O)O[C@@H](COc3ccc(C(C)(C)C)cc3)CN2[C@H]1c1ccc(Br)cc1 ; what composite z-score value has been reported?
Output line: 0.721

Input line: If you can, please state the reported composite z-score value of CC(C)=NO[C@H](C)c1cn([C@@H]2COC[C@H]2O)nn1 .
Output line: 0.139

Input line: Name the recorded composite z-score for COc1ccc(OC[C@@H]2CC3[C@@H](c4ccc(Br)cc4)[C@H](C)CC[C@H]3C(=O)O2)cc1 (stereo partly drawn) .
Output line: -0.758

Input line: Quick one: composite z-score of CON=C1c2cc(OC)ccc2O[C@H](c2cccc(OC)c2)[C@H]1O ?
Output line: 0.267

Input line: Any idea what composite z-score was measured for O=C1[C@H]2[C@H]3[C@H](O)[C@H](O)CC(=NOC[C@@H](O)COCc4ccco4)[C@@H]3CC[C@H]2C(=O)N1Cc1ccccc1 ?
Output line: -0.193

Input line: What does the record list as composite z-score for Cc1cc(C)c(-c2cc([C@H](C)ON=C[C@@H](C)[C@H](OCc3ccccc3)C(C)C)on2)c(C)c1 ?
Output line: -0.412

Input line: Please look up its composite z-score: CCN1C(=O)[C@H]2[C@@H]3C(=CC[C@H]2C1=O)C(=O)[C@H]1O[C@H]1[C@H]3O
Output line: 0.725

Input line: Look up composite z-score for this molecule: COC(=O)CC=C[C@@H](C)[C@@H](C=NOC[C@@H](C)[C@H](OCc1ccccc1)C(C)C)NS(=O)(=O)c1ccc(C)cc1
Output line: -0.596

Input line: Which composite z-score is listed for O=C1CCCC=C1C(O)c1ccc([N+](=O)[O-])cc1 (stereo not drawn) ?
Output line: -0.343

Input line: Which composite z-score is listed for CC(CCC(=O)OC[C@H]1O[C@H](C#Cc2ccccc2)C=C[C@@H]1Oc1ccc(C)cc1)=NO[C@H](C)c1cn([C@@H]2COC[C@H]2O)nn1 ?
Output line: -0.785

Input line: Quick one: composite z-score of COC(=O)[C@H](C)NC(=O)CCC1CC(OC(=O)NCc2cccc3ccccc23)CC2(CCCC(COC(=O)NCCC(C)C)O2)O1 (stereo partly drawn) ?
Output line: -0.087

Input line: Return reported composite z-score; argument: CC(C)=CCCC(C)=CCON=C1[C@H]2CCn3c(=O)n(-c4ccccc4)c(=O)n3[C@H]2[C@H](O)[C@@H]2O[C@H]12
Output line: 0.763

Input line: State the recorded composite z-score for this entry: CCOC(=O)[C@H](Cc1ccccc1)NC(=O)CCC1CC(OC(=O)NCc2ccc3c(c2)OCO3)CC2(CCCC(COC(=O)NCCc3ccc(Cl)cc3)O2)O1 (stereo partly drawn)
Output line: 0.814

Input line: Report composite z-score for CCOC(=O)[C@H](CC(C)C)NC(=O)CCC1CC(OC(=O)NCCc2ccc(F)cc2)CC2(CCCC(COC(=O)NCc3cccc(C(F)(F)F)c3)O2)O1 (stereo partly drawn) please.
Output line: 0.542

Input line: I'd like to know its composite z-score. The molecule in question is Cc1ccc(S(=O)(=O)N[C@@H]2COC(=O)CC=C[C@@H](C)[C@H](NS(=O)(=O)c3ccc(C)cc3)COC(=O)[C@H](C)NC(=O)CC=C[C@H]2C)cc1
Output line: -1.46

Input line: Given the molecule O=C(NN=C1C[C@@H](O)[C@@H](O)[C@@H]2[C@@H]3C(=O)N(c4ccc(F)cc4F)C(=O)[C@@H]3CC[C@H]12)OCc1ccccc1 , what is its reported composite z-score?
Output line: 0.411

Input line: Bench note: what composite z-score did CON=C(C)CCN1CCCc2nc(C)c(C)cc21 show?
Output line: 0.374

Input line: Name the recorded composite z-score for C#CCCCON=C1C[C@@H](O)[C@@H](O)[C@@H]2[C@@H]3C(=O)N(C[C@@H]4CCCO4)C(=O)[C@@H]3CC[C@@H]12 .
Output line: 0.842

Input line: Any idea what its composite z-score is? The molecule is CCN1C(=O)[C@H]2[C@H]3[C@H](O)[C@H](O)CC(=NOCC(C)C)[C@H]3CC[C@H]2C1=O
Output line: -0.238

Input line: Need composite z-score, item CCOC(=O)CCN1C(=O)[C@H]2[C@H]3[C@H](O)[C@H](O)CC(=NOCC(C)C)[C@@H]3CC[C@H]2C1=O
Output line: -1.16

Input line: What value of composite z-score has been recorded for this entry: CCOC(=O)CCN1C(=O)[C@H]2[C@H]3[C@H](O)[C@H](O)CC(=NNC(=O)OCC)[C@H]3CC[C@H]2C1=O
Output line: -2.61

Input line: I am curious: what composite z-score value has been reported for C=CC[C@@H]1C=CC(ON=C(C)C)[C@@H](CO)O1 (stereo partly drawn) ?
Output line: -0.0875

Input line: For OC[C@H]1O[C@H](C#Cc2ccccc2)C=C[C@@H]1O , what is its reported composite z-score?
Output line: 0.341

###

Molecular target: NADPH oxidase 5 (Homo sapiens) (UniProt Q96PH1)
Sequence (Q96PH1 whole entry, looked up): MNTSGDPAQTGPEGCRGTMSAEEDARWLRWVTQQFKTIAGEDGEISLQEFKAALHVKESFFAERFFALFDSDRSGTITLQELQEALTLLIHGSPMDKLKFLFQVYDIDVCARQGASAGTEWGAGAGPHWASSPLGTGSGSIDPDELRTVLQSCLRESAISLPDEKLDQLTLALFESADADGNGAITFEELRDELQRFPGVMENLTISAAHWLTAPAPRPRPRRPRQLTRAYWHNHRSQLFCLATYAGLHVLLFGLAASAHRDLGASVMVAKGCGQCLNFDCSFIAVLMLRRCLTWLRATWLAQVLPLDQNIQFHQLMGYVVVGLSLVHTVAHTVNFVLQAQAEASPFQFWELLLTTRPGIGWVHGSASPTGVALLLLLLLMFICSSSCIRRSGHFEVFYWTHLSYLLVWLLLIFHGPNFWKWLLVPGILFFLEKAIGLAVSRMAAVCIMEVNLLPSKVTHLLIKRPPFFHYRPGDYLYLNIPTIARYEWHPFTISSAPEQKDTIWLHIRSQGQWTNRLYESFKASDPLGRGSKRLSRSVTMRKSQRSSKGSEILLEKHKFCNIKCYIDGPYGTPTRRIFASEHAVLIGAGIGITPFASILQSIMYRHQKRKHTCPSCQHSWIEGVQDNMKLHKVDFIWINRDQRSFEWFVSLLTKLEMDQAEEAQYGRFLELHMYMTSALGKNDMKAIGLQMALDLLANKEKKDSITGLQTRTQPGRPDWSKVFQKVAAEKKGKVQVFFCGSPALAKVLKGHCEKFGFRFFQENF
Assay: NOX5-dependent H2O2 signal modulators, primary screen, NOX inhibitor project, cell-based, HEK293-NOX5, Amplex Red fluorescence (AID 1161)
Conditions: HEK293-NOX5, ionomycin, 45 min, higher = more signal
quantity-kind: z-score
Form: value (number only, do not type unit).

Input line: Record request: z-score value, item COC(=O)[C@H](C)NC(=O)CCC1CC(OC(=O)NCCc2ccc(F)cc2)CC2(CCCC(COC(=O)NCCOc3ccccc3)O2)O1 (stereo not given in full)
Output line: 0.382

Input line: Which value of z-score has been reported for CC(C)=CCCC(C)=CCON=C1C[C@@H](O)[C@@H](O)[C@@H]2[C@@H]3C(=O)N(Cc4ccc5c(c4)OCO5)C(=O)[C@@H]3CC[C@@H]12 in the records?
Output line: -2.6

Input line: Sample CCOC(=O)[C@H](CC(C)C)NC(=O)CCC1CC(OC(=O)NCc2ccc3c(c2)OCO3)CC2(CCCC(COC(=O)NCCC(C)C)O2)O1 (stereo not given in full) — what was its z-score?
Output line: 0.165

Input line: Item under review: CC(=O)OC[C@H]1O[C@H](CC=NO[C@@H](C)c2cc(-c3c(C)cc(C)cc3C)no2)C=C[C@@H]1OC(C)=O . Reported z-score?
Output line: -2.99

Input line: Bench note: what z-score did COc1ccc(COC(=O)NN=C2C[C@@H](O)[C@@H](O)[C@@H]3[C@@H]4C(=O)N(Cc5ccc6c(c5)OCO6)C(=O)[C@@H]4CC[C@H]23)cc1 show?
Output line: 0.138

Input line: Which z-score reading was recorded for the compound COc1cccc([C@H]2Oc3ccc(OC)cc3C(=NOCC[C@@H]3C=C[C@H](OC(C)=O)[C@@H](COC(C)=O)O3)[C@@H]2O)c1 ?
Output line: -0.14

Input line: // lookup z-score for COc1ccc(COC(=O)NN=C2C[C@@H](O)[C@@H](O)[C@@H]3[C@@H]4C(=O)N(Cc5ccccc5)C(=O)[C@@H]4CC[C@@H]23)cc1
Output line: -0.234

Input line: Record request: z-score value, item CC(=O)OC[C@H]1O[C@H](CCON=C(C)CCN2CCCc3nc(C)c(C)cc32)C=C[C@@H]1OC(C)=O
Output line: 0.207

Input line: Quick one: z-score of CCN(CC)CC(O)CN1CCCCc2nc(C)c(C)cc21 (stereo not given) ?
Output line: 0.419

Input line: Entry C[C@@H](c1ccccc1)N1C(=O)[C@H]2[C@H]3[C@H](O)[C@H](O)CC(=NOCc4ccccc4)[C@@H]3CC[C@H]2C1=O has what z-score?
Output line: 0.12
